Numbers sourced from the supplement of paper PMC6555819.

Quick list: PBM binding z-score per entry.
Test system: RARa homodimer (NR concentration 270 nM)
Assay: PBM binding z-score (relative to random genomic background probes); higher = stronger binding; sequences stand for … in GC…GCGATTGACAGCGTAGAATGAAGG
# answer = number (no unit)

Before answering, review these 4 worked examples.
GCATATAGGTAATACAAGGTGAAAGGCCGATTGT : 0.91
AGTCAAAGTTCATCTAGTTAACGTAAGATATGCT : 2.15
CCTACTGTGCCAAAGGTCATTGATTCCAATGCTC : 2.56
GTAACGAGGGCATTCGAGTTGATAGCATGGCGAT : -0.277

Reported PBM binding z-score for TAGCCTTGGTCAGATCGGGCCAGTATACGCTATA : what is it?
-1.58

Reported PBM binding z-score for TAGCCTAGGTCATGCGGGCCACTATAGTGTCGGC : what is it?
0.388

Reported PBM binding z-score for ATCCCTAGGTAAAGATAGTTCAGTGAATGCAAAT : what is it?
1.04

Reported PBM binding z-score for CAAACTCGGTCACAGAGGTCAAAGTCCGTGCGTA : what is it?
2.88

Reported PBM binding z-score for CCTCGGAGGACAACAGGAGGTCAGAGATGCCAGA : what is it?
0.885

Reported PBM binding z-score for TCTTGTAGTTCAACAGGAGGTTAAGAAAGATCGA : what is it?
0.938

Reported PBM binding z-score for CCAGCTAGGTCATGGTCAGCTAATCTACAGTATG : what is it?
0.48

Reported PBM binding z-score for CGTCCAAGGTCAATGGTCAGTGAAGAGATGACGG : what is it?
0.654

Reported PBM binding z-score for TCTTGTTGATCAGCAGGTTAAGAAAGCTGGCCAA : what is it?
-0.41

Reported PBM binding z-score for TCTTGTAGCTCAGCAGGTTAAGAAAGCTGGCCAA : what is it?
-1.11

Reported PBM binding z-score for ACGTACGGGTCAACGAGGTTATAGCACGCGTATA : what is it?
0.777

Reported PBM binding z-score for ATCGAAAGGTCGTGAGGTGAGTCTACAGAAAGGC : what is it?
0.605

Reported PBM binding z-score for TAGCCTAGGTCAGAGCGGGCCAGTATACGCTATA : what is it?
-1.12

Reported PBM binding z-score for CCGACTGGGGCATGAGGTTACCATAAGCCAGCCC : what is it?
-0.49

Reported PBM binding z-score for CCTGCTAGGTCAGGGTCAGCTAATCTACAGTATG : what is it?
0.175

Reported PBM binding z-score for GTACCAAGGTGAATAGGACGTTGATGAGTAGGCG : what is it?
0.381

Reported PBM binding z-score for ACTTACGGGTCAACGAGGTTATAGAACGCGTATA : what is it?
0.996

* * *

System: PPARg:RXRa IVT, anti-PPARg (NR concentration 270 nM, RXRa partner concentration 90 nM)
Experiment: PBM binding z-score (relative to random genomic background probes); higher = stronger binding; sequences stand for … in GC…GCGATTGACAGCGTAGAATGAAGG
Binary call on PBM binding z-score: Condition met from 3 upward, Condition not met beneath that.

Use the examples below as a reference point.
CCTCGGAGGACAGAAGGTAAGAGCTGTCCGCTTT : Condition not met
CCTTACGGGTCACTGACAGGTTATAGCCTTTGGA : Condition met

Entry CGTCCAAGGTCAAAGTCAGTGAAAGAGACTCGAA : is its PBM binding z-score no less than 3?
Condition met

Entry ATCGAAAGGGCGACGAGGTGAGTATACACCGTTT : is its PBM binding z-score no less than 3?
Condition not met

Entry ACAGCCAGGTGAGTGAAGGTAACTCAGCTGGACG : is its PBM binding z-score no less than 3?
Condition not met

Entry CCTGCTGGGCCATTCAGAGGTCATTGATCATATG : is its PBM binding z-score no less than 3?
Condition not met

Entry TATACAGGGTCAACGGCCAGAGTACGAATGTCGA : is its PBM binding z-score no less than 3?
Condition met

Entry TTACCAAGGTGAGCTGACGTCGTTGATCCAACTC : is its PBM binding z-score no less than 3?
Condition not met

Entry GCTTGTAGATCAAGGTTGAGAAAGACTAAGCTAA : is its PBM binding z-score no less than 3?
Condition not met

Entry CGTCCAAGGTCAAGGTCAGTGAAAGAGACTCGAA : is its PBM binding z-score no less than 3?
Condition met

Entry ATCGAAAGGTCGCGGTGAGTATAGAGAAAGGGAA : is its PBM binding z-score no less than 3?
Condition not met

* * *

Tested on: RARg:RXRa (NR concentration 270 nM, RXRa partner concentration 90 nM)
Test: PBM binding z-score (relative to random genomic background probes); higher = stronger binding; sequences stand for … in GC…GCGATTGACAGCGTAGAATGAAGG
Binary call on PBM binding z-score: Satisfied from 0.8 upward, Not satisfied beneath that.

CGTCCACGGTCAAAGGTCAGTGAAGAGATGACGG : Satisfied
ACTAGCAGGCCAAGGGCCACTCAAGATTAGTCCG : Not satisfied
CGAACTAGGTCAGAACTGGACAGTGAAGGATGAT : Satisfied
CAGCCCAGGTCAGGGCCAGTATAGGAGGAACGTT : Satisfied
ATCCCTAGGTAAAGTTCAGTGAAAGATCGATAGA : Satisfied
CGTCCAAGGTCAGACAGGTCAGTGAATGCCGAGT : Satisfied

Entry ATATGTAGGTAAGCTGGGGTCATTCAGACTAGGC : is its PBM binding z-score no less than 0.8?
Satisfied

Entry CCTAGCACGCCAGGGTCACTCAAGCATTTCGCTT : is its PBM binding z-score no less than 0.8?
Satisfied

Entry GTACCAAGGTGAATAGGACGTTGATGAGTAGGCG : is its PBM binding z-score no less than 0.8?
Not satisfied

Entry CCTAGCAGGCCAGGGTCCCTCAAGCATTTCGCTT : is its PBM binding z-score no less than 0.8?
Not satisfied

Entry CGAACTAGGTCAGAACAGGACAGTCAAGGATGAT : is its PBM binding z-score no less than 0.8?
Satisfied

Entry CCACACAGGTGAGAAGGTAACTCAGCCTCGATTA : is its PBM binding z-score no less than 0.8?
Not satisfied

* * *

System: PPARg:RXRa DBDmut IVT, anti-RXR (DBD mutation: RXRa K156A/R161A, NR concentration 270 nM, RXRa partner concentration 90 nM)
Assay: PBM binding z-score (relative to random genomic background probes); higher = stronger binding; sequences stand for … in GC…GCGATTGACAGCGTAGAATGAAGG
Quick list: PBM binding z-score per entry.
# answer = number (no unit)

Reported PBM binding z-score for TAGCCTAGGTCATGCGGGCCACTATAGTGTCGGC : what is it?
1.87

Reported PBM binding z-score for GCTTGTAGATCAGGGTTAAGAAAGACTAAGCTAA : what is it?
0.93

Reported PBM binding z-score for GATACAGGGTCATGGCCAGAGTACGCGTATTGAT : what is it?
3.28

Reported PBM binding z-score for AGAATGAGGTTATGCGTAGATCAGGGAAGAAAGT : what is it?
2.31

Reported PBM binding z-score for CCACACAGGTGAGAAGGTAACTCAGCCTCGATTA : what is it?
1.42

Reported PBM binding z-score for ATATGTAGATTAAGGGTCATTCAGGTTGGTTCGC : what is it?
1.15

* * *

System: PPARg DBDmut IVT, anti-PPARg (DBD mutation: PPARg1 K132A/R137A, NR concentration 270 nM)
Experiment: PBM binding z-score (relative to random genomic background probes); higher = stronger binding; sequences stand for … in GC…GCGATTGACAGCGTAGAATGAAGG
Classify by PBM binding z-score. Ranges: low bin: < -0.4; mid bin: ≥ -0.4 and < 0.7; high bin: ≥ 0.7

Use the examples below as a reference point.
AGAGACAGGTGAGTGAAGGTAACTCAGCTGGACG : low bin
TGAATGAGGTTAAACATCAGGGAACGTGGCGTCG : mid bin
CTACCAAGGTGAACAATGTCGTTGATTACTATTC : mid bin
ACTACTAGTTGACTTAGGGCAACCGATACGACGC : high bin
CTTCGGAGGACAGAAGGTCAGAGCTGTCCGCTTT : low bin

Lab note: which band did AGTCAAACTTCATCTAGGTAACGTAAGATATGCT land in?
high bin

Lab note: which band did ATCGAAAGGTCGACGAGGTGAGTATTCACCGTTT land in?
mid bin

Lab note: which band did GCAGACAGGTGAAACGCAGCTAACTCAGGGTGGC land in?
low bin
